Origin of values: patent US20220064276A1

system-under-test: T1, mouse LTBP3-proTGFβ1 complex (mouse, UniProt Q61810 41-1245; P04202 30-390, limits assumed)
T1 construct: Exemplary entries; also called Mo LTBP3-proTGFβ1; Murine LTBP3 proTGFb1
T1 sequence (Q61810 other isoform, or with tags, fused parts or gaps limits assumed, chain 1 of 2): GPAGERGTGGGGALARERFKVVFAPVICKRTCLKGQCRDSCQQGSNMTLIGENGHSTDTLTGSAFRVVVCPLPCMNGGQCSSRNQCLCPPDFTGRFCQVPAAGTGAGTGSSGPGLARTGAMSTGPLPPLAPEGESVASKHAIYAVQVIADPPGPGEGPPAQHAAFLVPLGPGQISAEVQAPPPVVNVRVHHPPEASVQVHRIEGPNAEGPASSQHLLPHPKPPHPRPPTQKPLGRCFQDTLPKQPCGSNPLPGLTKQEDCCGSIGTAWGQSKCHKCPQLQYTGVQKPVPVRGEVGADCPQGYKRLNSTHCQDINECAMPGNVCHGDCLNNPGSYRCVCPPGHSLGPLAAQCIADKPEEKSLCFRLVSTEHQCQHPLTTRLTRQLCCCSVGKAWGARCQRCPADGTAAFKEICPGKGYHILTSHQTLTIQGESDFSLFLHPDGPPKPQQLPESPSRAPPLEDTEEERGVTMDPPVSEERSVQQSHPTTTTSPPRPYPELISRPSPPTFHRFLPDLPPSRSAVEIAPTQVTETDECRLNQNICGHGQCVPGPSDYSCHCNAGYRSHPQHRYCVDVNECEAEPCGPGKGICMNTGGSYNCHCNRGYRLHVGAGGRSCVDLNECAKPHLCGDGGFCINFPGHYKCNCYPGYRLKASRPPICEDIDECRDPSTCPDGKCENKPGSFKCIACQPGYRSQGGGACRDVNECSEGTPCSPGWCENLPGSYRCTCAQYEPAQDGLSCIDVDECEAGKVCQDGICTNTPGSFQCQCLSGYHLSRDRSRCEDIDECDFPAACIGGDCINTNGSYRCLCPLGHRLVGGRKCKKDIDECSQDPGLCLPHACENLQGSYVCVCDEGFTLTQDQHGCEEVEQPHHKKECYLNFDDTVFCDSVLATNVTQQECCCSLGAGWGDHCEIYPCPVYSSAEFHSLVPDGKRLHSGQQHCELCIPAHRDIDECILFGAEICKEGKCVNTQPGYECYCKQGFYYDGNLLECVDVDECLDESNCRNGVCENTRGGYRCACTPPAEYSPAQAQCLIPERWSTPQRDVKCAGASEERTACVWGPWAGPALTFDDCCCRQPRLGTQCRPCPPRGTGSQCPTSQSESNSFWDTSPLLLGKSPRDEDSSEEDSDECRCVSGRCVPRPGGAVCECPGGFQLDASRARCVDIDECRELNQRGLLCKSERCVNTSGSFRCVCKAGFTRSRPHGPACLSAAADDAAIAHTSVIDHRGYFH
T1 sequence (P04202 30-390 limits assumed, chain 2 of 2): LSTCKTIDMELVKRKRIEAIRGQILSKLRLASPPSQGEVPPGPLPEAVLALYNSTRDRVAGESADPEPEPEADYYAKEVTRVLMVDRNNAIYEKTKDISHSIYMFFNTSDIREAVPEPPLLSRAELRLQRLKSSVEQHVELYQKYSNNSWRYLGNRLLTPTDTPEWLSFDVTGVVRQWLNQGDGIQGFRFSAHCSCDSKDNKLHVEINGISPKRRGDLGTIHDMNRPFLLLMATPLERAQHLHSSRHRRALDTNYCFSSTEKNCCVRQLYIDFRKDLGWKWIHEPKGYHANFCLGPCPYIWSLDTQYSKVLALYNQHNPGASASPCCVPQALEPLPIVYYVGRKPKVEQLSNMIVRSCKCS
assay-details: Octet BLI, IgG captured
result-type: Kd (nM)
# output: bare number, implied unit nM

{"binder": "SR-AB42 (antibody, IgG1, V domains shown, Cycle 3, lineage SR-AB23) VH: QVQLVESGGGVVQPGRSLRLSCAASGFTFRSYVMHWVRQAPGKGLEWVAVISHEGSLKYYADSVKGRFTISRDNSKNTLYLQMNSLRAEDTAVYYCARPRIAARRGGFGYWGQGTLVTVSS VL: NFMLTQPHSVSESPGKTVTISCTRSSGNIDNNYVQWYQQRPGSSPTTVIYEDNQRPSGVPDRFSGSIDSSSNSASLTISGLKTEDEADYYCQSYDYDTQGVVFGGGTKLTVL", "measure-unit": "nM", "Kd": 1.05}

Give the measured Kd of SR-AB63 (antibody, IgG1, V domains shown, Cycle 3, lineage SR-AB26) VH: QLQLQESGPGLVKPSETLSLTCTVSGGSIRSSSYYWGWIRQPPGKGLEWIGSISYSATTYYNPSLKSRVTISVDTSKNQFSLKLSSVTAADTAVYYCAGDPSYDSIAGMQVWGQGTTVTVSS VL: DIQLTQSPSSLSASVGDRVTITCRASQSISSYLNWYQQKPGKAPKLLIYAASNLQSGVPSRFSGSGSGTDFTLTISSLQPEDFATYYCQQSFDWPLTFGGGTKVEIK .
2
